assay: half life was reported in rat after oral administration
Assay type: ADME, organism-based
cond: in vivo
measured_property: half-life (h)
Numbers only, in h.

Example compounds with recorded half-life:
Query :: I would be grateful if you could share the reported half-life for CC(C)[C@@H]1C(=O)N(S(C)(=O)=O)[C@@H]2CCN(C(=O)/C=C/CN3CCCCC3)[C@H]21.Cl .
Result :: 0.8

Query :: // returns reported half-life for input CC(C)[C@@H]1C(=O)N(S(C)(=O)=O)[C@@H]2CCN(C(=O)c3cnc(CNC4CC4)cn3)[C@H]21.Cl
Result :: 0.4

Query :: Value lookup for half-life; key = CC(C)[C@@H]1C(=O)N(S(C)(=O)=O)[C@@H]2CCN(C(=O)c3coc(CN4CCCC4)n3)[C@H]21.Cl
Result :: 1.3

# next compound below
Query :: What does the record list as half-life for CC(C)[C@@H]1C(=O)N(S(C)(=O)=O)[C@@H]2CCN(C(=O)C3CN(CC(C)(C)C)C3)[C@H]21.Cl ?
Result :: 1.2
